- EXPERIMENTAL TARGET: hRIPK1 (aa 1-375) fusion protein (Homo sapiens)
- Construct: hRIPK1 (aa 1-375) fusion protein
- Sequence (Q13546 1-375): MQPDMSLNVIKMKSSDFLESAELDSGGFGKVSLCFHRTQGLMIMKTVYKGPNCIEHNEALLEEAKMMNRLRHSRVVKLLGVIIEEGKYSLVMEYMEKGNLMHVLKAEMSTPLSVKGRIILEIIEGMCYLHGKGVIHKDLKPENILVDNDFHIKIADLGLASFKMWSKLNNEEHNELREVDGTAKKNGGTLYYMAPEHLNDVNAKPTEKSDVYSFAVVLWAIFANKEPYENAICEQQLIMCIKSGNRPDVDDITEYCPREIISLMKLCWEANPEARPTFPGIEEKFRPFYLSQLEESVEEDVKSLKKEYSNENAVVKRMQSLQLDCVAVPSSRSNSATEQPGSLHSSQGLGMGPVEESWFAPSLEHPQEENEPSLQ
- ASSAY PROCEDURE: ADP-Glo kinase assay, RIPK1 autophosphorylation
- Format: biochemical
- ASSAY CONDITIONS: Table 1
pIC50: −log10 of the molar value.
RESULT TYPE: pIC50

>>> value_measured("NC(=O)c1nc(N2CCC(C(=O)N3OCC[C@H]3c3cnccn3)CC2)ncc1F")
8.07
>>> value_measured("Cc1coc([C@@H]2CCON2C(=O)C2CCN(c3nccc(C#N)n3)CC2)c1")
7.16
>>> value_measured("Cc1c(F)cncc1[C@@H]1CCON1C(=O)C1CCN(c2cc(C(N)=O)ncn2)CC1")
6.39
>>> value_measured("N#Cc1cncc([C@@H]2CCON2C(=O)C2CCN(c3ccnc(C(N)=O)n3)CC2)c1")
6.53
>>> value_measured("Cn1ccc(C2CCON2C(=O)C2CCN(c3nccc(C#N)n3)CC2)n1 (racemic)")
7.19
>>> value_measured("NC(=O)c1ccnc(N2CCC(C(=O)N3OCCC3c3ccc(N)nc3)CC2)n1 (racemic)")
7.31
>>> value_measured("NC(=O)c1cc(N2CCC(C(=O)N3OCCC3c3cncc(F)c3)CC2)ncn1 (racemic)")
7.48
>>> value_measured("Cc1ncc([C@@H]2CCON2C(=O)C2CCN(c3ncc(F)c(C(N)=O)n3)CC2)cc1C#N")
7.82
>>> value_measured("N#Cc1cc([C@@H]2CCON2C(=O)C2CCN(c3nccc(C(N)=O)n3)CC2)cnn1")
6.76
>>> value_measured("N#Cc1cncc([C@@H]2CCON2C(=O)C2CCN(c3nccc(C(=O)O)n3)CC2)c1 (single isomer, unassigned) [compound 102]")
6.35
>>> value_measured("Cc1nc(Cl)nc(N2CCC(C(=O)N3OCC[C@H]3c3cnccn3)CC2)n1")
7.49
>>> value_measured("COc1nccc(N2CCC(C(=O)N3OCC[C@H]3c3cncc(C#N)c3)CC2)n1")
7.12
>>> value_measured("N#Cc1cncc([C@@H]2CCON2C(=O)C2CCN(c3nc(Cl)ncc3F)CC2)c1")
7.65
>>> value_measured("Cc1cncc([C@@H]2CCON2C(=O)C2CCN(c3nccc(C(N)=O)n3)CC2)n1")
8.03
>>> value_measured("NC(=O)c1cncc(C2CCON2C(=O)C2CCN(c3cc(C(N)=O)ncn3)CC2)c1 (racemic)")
6.61
>>> value_measured("N#Cc1cncc([C@@H]2CCON2C(=O)[C@H]2CCN(c3nccc(C(N)=O)n3)C[C@H]2F)c1 (single isomer, unassigned)")
7.59
